tgt: DNA-PK (Homo sapiens (Human), UniProt P78527)
experimental-protocol: DNA-PK/Biochemical Assay (FlashPlate kinase assay)
recorded-conditions: 5 μM ATP, 90 min, room temperature
pIC50: −log10 of the molar value.
attribute-measured: pIC50

COc1cc2ncc3c(c(-c4ccc(C#N)cc4)nn3C)c2cc1OCc1cccc(N(C)C)c1
6.30 to 7.00
COc1cc2ncc3c(c(-c4ccc(C#N)cc4)nn3C)c2cc1OCc1ccc(-n2cccn2)nc1
< 6.30
COc1cc2ncc3c(c(-c4ccc(C#N)cc4)nn3C)c2cc1OCc1ccnc(N)c1
> 7.00

pIC50 lookup needed for "COc1cc2ncc3c(c(-c4ccc(C#N)cc4)nn3C(F)F)c2cc1OC" , thanks.
> 7.00

pIC50 lookup needed for COc1cc2ncc3c(c(-c4ccc(C#N)cc4)nn3C)c2cc1OC(C(=O)NC(=N)N)c1ccc(F)cc1 (stereo not drawn) , thanks.
> 7.00

pIC50 lookup needed for "COCc1cc(-c2nn(C)c3cnc4cc(OC)c(OC)cc4c23)ccc1C#N" , thanks.
> 7.00

pIC50 lookup needed for "COc1cc2ncc3c(c(-c4ccc(C#N)cc4)nn3C)c2cc1O" , thanks.
> 7.00

pIC50 lookup needed for "COc1cc2ncc3c(c(-c4ccc(C#N)cc4)nn3C)c2cc1OCc1cccs1" , thanks.
> 7.00

pIC50 lookup needed for "COc1cc2ncc3c(c(-c4ccc(C#N)cc4)nn3C)c2cc1OCc1cccc(CN2CCN(C)CC2)c1" , thanks.
< 6.30
